Data origin: ChEMBL document CHEMBL2375213

tested on: HCT-116; test: Antiproliferative activity against human HCT116 cells after 48 hrs by sulforhodamine B assay; assay type: functional, cell-based; conditions: HCT-116, 48 h
Measurement Label: IC50 (µM)
# number only, unit µM dropped from output

Compound: CC1=C2[C@H]3OC(=O)C4(C[C@@H](c5cc(F)cc(F)c5)N(c5ccccc5)O4)[C@@H]3CC[C@@]2(C)C=CC1=O (stereo partly specified)
IC50, µM: 28

What IC50 value was documented for this compound, COc1ccc([C@@H]2CC3(ON2c2ccccc2)C(=O)O[C@@H]2C4=C(C)C(=O)C=C[C@]4(C)CC[C@H]23)cc1Br (stereo partly specified) ? 45

Sample CC1=C2[C@H]3OC(=O)C4(C[C@@H](c5cccc6ccccc56)N(c5ccccc5)O4)[C@@H]3CC[C@@]2(C)C=CC1=O (stereo partly specified) — what was its IC50? 100

Item CC1=C2[C@H]3OC(=O)C4(C[C@H](c5ccc(F)c(Br)c5)N(c5ccccc5)O4)[C@@H]3CC[C@@]2(C)C=CC1=O (stereo partly specified) has what recorded IC50? 100

// query IC50 value for entry CC1=C2[C@H]3OC(=O)C4(CC(c5ccc([N+](=O)[O-])cc5)=NO4)[C@@H]3CC[C@@]2(C)C=CC1=O (stereo partly specified) 55

Fill blank: measured IC50 of the compound CC1=C2[C@H]3OC(=O)C4(C[C@H](c5ccc([N+](=O)[O-])cc5)N(c5ccccc5)O4)[C@@H]3CC[C@@]2(C)C=CC1=O (stereo partly specified) is ____. 100

---

test system: HEp-2; assay: Antiproliferative activity against human Hep2 cells after 48 hrs by sulforhodamine B assay; assay type: functional, cell-based; settings: HEp-2, 48 h
Measurement Label: IC50

Recorded IC50, per entry:
Compound: CC1=C2[C@H]3OC(=O)C4(CC(c5cc(F)cc(F)c5)=NO4)[C@@H]3CC[C@@]2(C)C=CC1=O (some centres not stated)
Observed Measurement: 100 µM
//
Compound: CC1=C2[C@H]3OC(=O)C4(C[C@H](c5cc(F)cc(F)c5)N(c5ccccc5)O4)[C@@H]3CC[C@@]2(C)C=CC1=O (some centres not stated)
Observed Measurement: 100 µM

Name the recorded IC50 for CC1=C2[C@H]3OC(=O)C4(C[C@@H](c5ccc(F)c(Br)c5)N(c5ccccc5)O4)[C@@H]3CC[C@@]2(C)C=CC1=O (some centres not stated) . 100 µM

Using the record for CC1=C2[C@H]3OC(=O)C4(C[C@@H](c5ccc(Br)cc5)N(c5ccccc5)O4)[C@@H]3CC[C@@]2(C)C=CC1=O (some centres not stated) , report its IC50. 65 µM

IC50 lookup needed for CC1=C2[C@H]3OC(=O)C4(C[C@H](c5ccc(F)c(Br)c5)N(c5ccccc5)O4)[C@@H]3CC[C@@]2(C)C=CC1=O (some centres not stated) , thanks. 3.7 µM

Which IC50 reading was recorded for the compound CC1=C2[C@H]3OC(=O)C4(CC(c5c(Cl)cccc5Cl)=NO4)[C@@H]3CC[C@@]2(C)C=CC1=O (some centres not stated) ? 15 µM

Reported IC50 for CC1=C2[C@H]3OC(=O)C4(CC(c5ccc(Cl)cc5Cl)=NO4)[C@@H]3CC[C@@]2(C)C=CC1=O (some centres not stated) : what is it? 29 µM

---

tested on: MCF7; assay: Antiproliferative activity against human MCF7 cells after 48 hrs by sulforhodamine B assay; type: functional, cell-based; conditions: MCF7, 48 h
Each entry below lists one item and its recorded IC50 value.
# unit: nM | format: bare number

Consider the reported IC50 for these molecules:
Molecule: CC1=C2[C@H]3OC(=O)C4(C[C@@H](c5cc(F)cc(F)c5)N(c5ccccc5)O4)[C@@H]3CC[C@@]2(C)C=CC1=O (stereo partly drawn)
IC50, nM: 3900
//
Molecule: CC1=C2[C@H]3OC(=O)C4(C[C@@H](c5ccc([N+](=O)[O-])cc5)N(c5ccccc5)O4)[C@@H]3CC[C@@]2(C)C=CC1=O (single isomer, unassigned)
IC50, nM: 900

Which value of IC50 has been reported for COc1ccc(C2=NOC3(C2)C(=O)O[C@@H]2C4=C(C)C(=O)C=C[C@]4(C)CC[C@H]23)cc1 (stereo partly drawn) in the records? 20
